The following variants are listed with their measured abundance fitness values.
B1: Homeobox expressed in ES cells 1, residues 110 to 165; numbered along this chain, Q9UBX0 (parent)
chain: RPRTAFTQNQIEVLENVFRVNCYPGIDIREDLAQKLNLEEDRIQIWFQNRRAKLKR

Variants of: B1
measurement notes: abundance fitness (aPCA) (normalised: wild type 0, dead -1); higher = more abundant; growth selection in yeast, the domain comes from the species named
run parameters: Homo sapiens

variant identifier	abundance fitness
T7E	-0.352
N9D	0.187
N16F	-0.962
D31V	-0.425
I11N	0.091
P2H	0.545
A5N	0.391
T4H	0.069
P24Q	-0.314
C22F	-0.467
R3E	0.24
L14T	-0.463
P2M	0.333
Q10H	-0.594
I28P	-0.725
I11D	-0.072
F6K	-0.703
C22W	-0.066
R3Q	0.27
L14G	-0.88
C22K	-0.328
